ASSAY COMMENT: amyloid nucleation score (Sup35N fusion, yeast selection) (log enrichment); library NNK3; higher = more nucleation; inactive = no reads after selection;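 also: zero at mode of non-aggregating sequences after 7 days selection at 30°C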
PARAMETER MEASURED: amyloid nucleation score

| SUBSTANCE | PARAMETER MEASURED | RESULT VALUE |
| --- | --- | --- |
| SSPYDCSVNYLKNVSPRTLY | amyloid nucleation score | inactive |
| ASMLALCVLMHRLEPIRSFN | amyloid nucleation score | 0.64 |
| IGTDWRARAMAALYI | amyloid nucleation score | inactive |
| EMEASRG | amyloid nucleation score | inactive |
| FSKIHI | amyloid nucleation score | inactive |
| IFTHVVEEFS | amyloid nucleation score | inactive |
| LCGLERLKVMQWHSVPRKHI | amyloid nucleation score | inactive |
| SIYFWCS | amyloid nucleation score | 2.09 |
| KKSKRISLGR | amyloid nucleation score | inactive |
| RLNWGFTLA | amyloid nucleation score | inactive |
| TDSCKGVWIMVGFALFLMWS | amyloid nucleation score | inactive |
| WIPTPVLCGRPNFYFY | amyloid nucleation score | inactive |
| FDVFISENNDAGSHNVEMYQ | amyloid nucleation score | inactive |
| LRRLELIGLECNLTGSRAVP | amyloid nucleation score | inactive |
| SIMYFVTNGCGNGC | amyloid nucleation score | 1.79 |
| FNVVMSRYIYYCVMGVIRMS | amyloid nucleation score | inactive |
| ILPSYDLFEVVWLVRAD | amyloid nucleation score | inactive |
| ANAFTGIRCVQVRRRCSLDM | amyloid nucleation score | inactive |
| HNLTNLVSILGNAS | amyloid nucleation score | inactive |
| PYTTLYSFRNC | amyloid nucleation score | inactive |
| QALYDWILWNHWTTKVGPVA | amyloid nucleation score | inactive |
| LCALTS | amyloid nucleation score | inactive |
| YTSGRSVSGRCHLWELKAIK | amyloid nucleation score | inactive |
| FSMAFYMYG | amyloid nucleation score | 0.163 |
| EMLGHHVGSLINRRVITVLR | amyloid nucleation score | inactive |
| HKRLGPLHYRLICG | amyloid nucleation score | inactive |
| CIEWHAQGDFFLMICLYCPD | amyloid nucleation score | inactive |
| SVWESHVWHAHTQI | amyloid nucleation score | inactive |
| PVVTMLYLTSIVSSSGHGSY | amyloid nucleation score | 0.898 |
| GTPYCICALSMHSTWDCN | amyloid nucleation score | 1.64 |
| GAGCNVVAAATARSRDGDWS | amyloid nucleation score | 0.212 |
| SLNLWGLRSKVPDVWRMLMR | amyloid nucleation score | inactive |
| LFYGHVNLASYRVSNRSKTR | amyloid nucleation score | inactive |
| VCVRKLELGDCLKCG | amyloid nucleation score | inactive |
| AMEEDIYLTNDYTIIM | amyloid nucleation score | 0.45 |
| VEHSFYSLVCHRTDLF | amyloid nucleation score | inactive |
| SVNIMRSLIWH | amyloid nucleation score | inactive |

---

ASSAY COMMENT: amyloid nucleation score (Sup35N fusion, yeast selection) (log enrichment); library NNK3; higher = more nucleation; inactive = no reads after selection
PARAMETER MEASURED: amyloid nucleation score

| SUBSTANCE | RESULT VALUE |
| --- | --- |
| GIIMPKSRLVPTWTQSRSCC | inactive |
| FGQDSPSVLTC | -0.381 |
| FLRCTRPPTASENIFRDINY | inactive |
| TLVSQMPCNM | inactive |
| ERFRSLSGTVEEG | inactive |
| WADIIKMGDVHVVDYYRKER | inactive |
| SRRFTLPGGSMFTEVLM | inactive |
| SRFYTL | inactive |
| CMFSPPCDLRGETVLRRPSL | 0.143 |

---

ASSAY COMMENT: amyloid nucleation score (Sup35N fusion, yeast selection) (log enrichment); library NNK1; higher = more nucleation; inactive = no reads after selection
# class assignment by measured amyloid nucleation score: low = under -0.1, medium = from -0.1 up to 0.5, high = 0.5 and over

| SUBSTANCE | LABEL VALUE |
| --- | --- |
| IYGGRIS | low |
| LFFSYMQLVTNSTCTYLRVF | high |
| NLWLPAWCGLYQCNTGHSGY | high |
| LFAPPYLLAVMEE | high |
| SAQSTILICLHKGLDMSERH | high |
| LGCLQLITSERGPDYYKVAT | medium |
| DGSSLSPDPSLVWLKDM | low |
| ALSSAALEYNIPVGSGAFVN | medium |
| IMKLYPLRQSG | medium |
| CSVMSNARRIWDRMQLNGVK | low |
| LRVKIHTIVIQWIANNGARL | medium |
| LSQMSRCNPACAVVPASEMA | medium |
| VVMYRALTNHN | high |
| WREYRLWDEG | low |
| RNCEEGFWRSEQPDHTYKLA | low |
| ALNYSRGMTMVGVCLPHKLT | low |
| PHPPAPKK | medium |

---

ASSAY COMMENT: amyloid nucleation score (Sup35N fusion, yeast selection) (log enrichment); library NNK2; higher = more nucleation; inactive = no reads after selection
PARAMETER MEASURED: amyloid nucleation score

| BIOSEQUENCE | RESULT VALUE |
| --- | --- |
| KVLLMTRT | -0.113 |
| CVLDLNVMDGGLL | -1.26 |
| TSTCNRRVIWMHLEPGELCV | -0.375 |
| GFDSDMVPHRSSRAVLC | 1.33 |
| SYSYDRVRKDTELARRNRAV | 0.436 |
| EWVMKSWV | -0.578 |
| MFIGLLVLRLLFAYQNDKSY | 0.153 |

---

ASSAY COMMENT: amyloid nucleation score (Sup35N fusion, yeast selection) (log enrichment); library NNK3; higher = more nucleation; inactive = no reads after selection

| BIOSEQUENCE | amyloid nucleation score |
| --- | --- |
| FLRYGCMHYLGRMGLY | -0.079 |
| ISCRMYLCCQVLTSSCTWSH | 1.34 |
| YISHWASGSFIVNYIERWMR | 0.707 |
| VRNEYACNCTYMRIARLDE | 0.319 |

---

ASSAY COMMENT: amyloid nucleation score (Sup35N fusion, yeast selection) (log enrichment); library NNK1; higher = more nucleation; inactive = no reads after selection
Below, each entry is listed alongside its reported amyloid nucleation score.

| SUBSTANCE | amyloid nucleation score |
| --- | --- |
| ASFQFSSCMCSLYAVFSRLL | 0.759 |
| GVVTLFTEYSSEPCRCGFRQ | -0.21 |
| ECVKTVTLVNYRVLRWSSVC | 0.129 |
| CLLHEASCGWFFGWFVRHT | 0.989 |
| NGSVTNNKNHPFVDYGVRHE | -0.468 |
| AFALHSHFLSL | 1.75 |
| RMMLVV | -0.181 |
| YVLRSAMACLCDCVCESCGG | 2.71 |

---

ASSAY COMMENT: amyloid nucleation score (Sup35N fusion, yeast selection) (log enrichment); library NNK3; higher = more nucleation; inactive = no reads after selection
PARAMETER MEASURED: amyloid nucleation score

| SUBSTANCE | RESULT VALUE |
| --- | --- |
| GTLISEVCIFQ | inactive |
| CSCFYNNRIISSPMLLWLVQ | inactive |
| NLKRTQLFLHLFRMGCFHT | inactive |
| VRVLMSL | -0.087 |
| SWGNHYLRGLICYFLLFTDT | inactive |
| LVNLCRIRRVLECVRRRHRS | inactive |
| RVRRLT | inactive |
| NAALIVCLITFYVLGIFLAG | inactive |
| LDCFCSPVKVTWH | 0.146 |

---

ASSAY COMMENT: amyloid nucleation score (Sup35N fusion, yeast selection) (log enrichment); library NNK3; higher = more nucleation; inactive = no reads after selection

| BIOSEQUENCE | amyloid nucleation score |
| --- | --- |
| ISGEQRYSKCRT | inactive |
| TGVSIKFTSSKYYSVTSATT | inactive |
| FSLTLCWHWSWVQCAGVPWG | 2.05 |
| WYSRLRLEQMRKWCHRVL | inactive |
| HYTTASFDVDNPLRLLLLLQ | inactive |
| CNTGPEIMASVAKVDVWVIK | 1.65 |
| IYTFSCDIYCNMSFCLWFDN | 2 |
| ASCPLSKKWMELGKCAGPTH | inactive |

---

ASSAY COMMENT: amyloid nucleation score (Sup35N fusion, yeast selection) (log enrichment); library NNK1; higher = more nucleation; inactive = no reads after selection

| SUBSTANCE | amyloid nucleation score |
| --- | --- |
| CQSVFRGTIHS | -0.235 |
| WLTKSEN | -0.151 |
| NCAFVAS | -0.019 |
| ILLLVSISMVKESDQWLING | -0.519 |
| TASCVIMELPVGTNDKYVWT | 0.296 |
| SIYIVNSLALVGMGLMSNYG | 2.81 |
| SPFASVEEFELL | 0.124 |
| WFTAFARK | 3.41 |
| NYEQYLGCSNTEERSSSCTL | -0.286 |
